# System: soybean
# method: Test C pre-/postemergence test
# Assay type: in vivo, Glycine max
# condition details: 62 g ai/ha, Preemergence; scale 0 to 100
measurement label: Soybean plant response rating
When you answer, write just the number.

Find the measured Soybean plant response rating of Cn1nc(C(F)(F)F)c(C[S+]([O-])c2ccc(Cl)c[n+]2[O-])c1OCC(F)F (centres unmarked) and report it.
100

# return recorded Soybean plant response rating for input CCn1nc(C(F)(F)F)c(CS(=O)(=O)c2cc(C)cc[n+]2[O-])c1OCC(F)(F)F
20

Using known records, supply Soybean plant response rating for C#CCOc1c(CS(=O)(=O)c2cccc[n+]2[O-])c(C(F)(F)F)nn1C
0

Provide only the value of recorded Soybean plant response rating for Cc1cc[n+]([O-])c(S(=O)(=O)Cc2c(C(F)(F)C(F)(F)F)nn(C)c2OCC(F)(F)F)c1
25

Note Soybean plant response rating for the molecule shown: CC(c1c(C(F)(F)F)nn(C)c1OC(F)F)S(=O)(=O)c1cc(C(C)(C)C)cc[n+]1[O-] (racemic)
0

Respond only with Soybean plant response rating recorded for Cn1nc(OC(F)F)c(CS(=O)(=O)c2cccc[n+]2[O-])c1C(F)(F)F
0

Please supply the value of reported Soybean plant response rating for the item Cn1nc(C(F)(F)F)c(C[S+]([O-])c2cc(C(C)(C)C)cc[n+]2[O-])c1OC(F)F (racemic)
85

Report measured Soybean plant response rating; entry is CC(Oc1c(C[S+]([O-])c2cccc[n+]2[O-])c(C(F)(F)F)nn1C)C(F)(F)F (centres unmarked)
45

Supply recorded Soybean plant response rating for Cn1nc(C(F)(F)F)c(CS(=O)(=O)c2cccc[n+]2[O-])c1OCC(F)(F)F here.
70

Look up Soybean plant response rating of Cn1nc(C(F)(F)F)c(C[S+]([O-])c2ccc(Cl)c[n+]2[O-])c1OCC(F)(F)F (racemic) and report it.
100

Alright, here's another molecule for you.
Give the reported value of Soybean plant response rating for this record: CC(C)c1cc[n+]([O-])c([S+]([O-])Cc2c(C(F)(F)F)nn(C)c2OC(F)F)c1 (centres unmarked)
50
